TEST_SYSTEM: T1, cynomolgus monkey transferrin receptor 1 (cTfR1) (cynomolgus monkey (Macaca fascicularis), UniProt Q5RDH6 89-760 (Pongo abelii entry), limits assumed)
T1 construct: Recombinant cynomolgus TfR1; also called cyTfR1; cyno TfR1
T1 chain: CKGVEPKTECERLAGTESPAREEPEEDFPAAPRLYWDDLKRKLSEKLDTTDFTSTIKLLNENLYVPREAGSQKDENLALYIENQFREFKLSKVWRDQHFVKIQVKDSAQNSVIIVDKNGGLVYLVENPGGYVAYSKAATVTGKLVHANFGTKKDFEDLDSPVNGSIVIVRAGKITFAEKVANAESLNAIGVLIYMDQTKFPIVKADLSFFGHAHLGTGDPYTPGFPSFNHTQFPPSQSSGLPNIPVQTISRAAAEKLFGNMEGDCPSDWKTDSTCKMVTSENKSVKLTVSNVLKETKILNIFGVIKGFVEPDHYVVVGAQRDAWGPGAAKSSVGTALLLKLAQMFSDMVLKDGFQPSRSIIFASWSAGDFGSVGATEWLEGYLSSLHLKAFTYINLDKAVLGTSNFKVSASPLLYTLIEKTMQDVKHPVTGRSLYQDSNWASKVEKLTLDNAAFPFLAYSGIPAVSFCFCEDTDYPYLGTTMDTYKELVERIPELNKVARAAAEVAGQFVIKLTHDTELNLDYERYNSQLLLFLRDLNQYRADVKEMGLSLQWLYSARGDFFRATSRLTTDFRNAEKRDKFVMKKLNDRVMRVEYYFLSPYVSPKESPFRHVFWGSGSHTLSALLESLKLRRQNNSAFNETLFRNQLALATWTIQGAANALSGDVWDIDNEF
ASSAY_PROCEDURE: ELISA on plate-coated cyno TfR1, unconjugated Fab
METRIC_NAME: Fab binding affinity ELISA (nM)
Numeric only. Scale: nM

humanized anti-TfR Fab 3A4 VH3 (N54S)/Vk4 (Fab, V domains shown) VH: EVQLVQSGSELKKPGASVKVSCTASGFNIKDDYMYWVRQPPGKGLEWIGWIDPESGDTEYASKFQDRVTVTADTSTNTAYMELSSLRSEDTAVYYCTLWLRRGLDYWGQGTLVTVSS VL: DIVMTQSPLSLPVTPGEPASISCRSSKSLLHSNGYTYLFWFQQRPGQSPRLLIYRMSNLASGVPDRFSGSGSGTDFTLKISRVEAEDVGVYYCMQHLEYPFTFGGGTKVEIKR: 398
humanized anti-TfR Fab 3M12 VH3/Vk2 (Fab, V domains shown) VH: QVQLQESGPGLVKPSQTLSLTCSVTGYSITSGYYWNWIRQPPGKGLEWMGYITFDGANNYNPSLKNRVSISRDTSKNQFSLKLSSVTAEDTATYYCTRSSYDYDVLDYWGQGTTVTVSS VL: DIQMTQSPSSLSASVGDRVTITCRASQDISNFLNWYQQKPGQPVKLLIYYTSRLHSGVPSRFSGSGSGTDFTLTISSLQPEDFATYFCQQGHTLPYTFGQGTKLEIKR: 9.9
humanized anti-TfR Fab 5H12 VH5 (C33D)/Vk4 (Fab, V domains shown) VH: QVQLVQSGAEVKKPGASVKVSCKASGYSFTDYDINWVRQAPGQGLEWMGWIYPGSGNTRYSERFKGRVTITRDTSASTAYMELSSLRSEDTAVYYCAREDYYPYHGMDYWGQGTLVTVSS VL: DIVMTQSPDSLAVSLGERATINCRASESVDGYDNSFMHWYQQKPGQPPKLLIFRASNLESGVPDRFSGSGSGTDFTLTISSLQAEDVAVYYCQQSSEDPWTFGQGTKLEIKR: 3.5

Now for the binder whose Fab binding affinity ELISA we want.
Query :: What value of Fab binding affinity ELISA has been reported for the following binder? humanized anti-TfR Fab 3A4 VH3/Vk4 (Fab, V domains shown) VH: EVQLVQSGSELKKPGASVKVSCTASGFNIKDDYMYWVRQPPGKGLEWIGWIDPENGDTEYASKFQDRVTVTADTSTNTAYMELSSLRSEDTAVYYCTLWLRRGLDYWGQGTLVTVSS VL: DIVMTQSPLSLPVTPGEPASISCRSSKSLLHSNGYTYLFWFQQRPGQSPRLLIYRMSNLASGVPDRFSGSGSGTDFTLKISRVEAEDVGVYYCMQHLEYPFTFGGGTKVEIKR
Result :: 122
